The measured values listed here are drawn from patent US6146628A.

# Test system: clinical HIV-1 isolates
# protocol.details: In vitro susceptibility of clinical HIV-1 isolates to zidovudine (IC50)
# Type: cell-based
# condition.description: Human immunodeficiency virus 1, read-out: mean zidovudine IC50, AIDS-related complex, four zidovudine susceptible isolates
# From the text: A total of 22 clinical HIV-1 isolates were studied, including 8 isolates from four seropositive asymptomatic individuals, 6 isolates from three patients with the AIDS-related complex, and 8 isolates from four patients with AIDS (two pairs of zidovudine-resistant and zidovudine-susceptible reference isolates were also included in this group). Erice et al., Antimicrob. Ag. Chemother., 37, 835 (1993). […]
parameter.measured: IC50
Please state the value followed by its unit.

Item: Cc1cn([C@H]2C[C@H](N=[N+]=[N-])[C@@H](CO)O2)c(=O)[nH]c1=O | IC50: 106 nM

----------
# Tested on: clinical HIV-1 isolates
# protocol.details: In vitro susceptibility of clinical HIV-1 isolates to zidovudine (IC50)
# Assay type: cell-based
# condition.description: Human immunodeficiency virus 1, read-out: zidovudine IC50 range, strains from zidovudine-untreated individuals (15 isolates)
pIC50: −log10 of the molar value.
parameter.measured: pIC50

pIC50 recorded for this compound, Cc1cn([C@H]2C[C@H](N=[N+]=[N-])[C@@H](CO)O2)c(=O)[nH]c1=O , is 6.22 to 9.00

----------
# Tested on: clinical HIV-1 isolates
# protocol.details: In vitro susceptibility of clinical HIV-1 isolates to zidovudine (IC50)
# Format: cell-based
# condition.description: Human immunodeficiency virus 1, read-out: mean zidovudine IC50, patients with AIDS, five zidovudine susceptible strains
parameter.measured: IC50 (nM)
Please respond with the number in nM and leave the unit unwritten.

Field IC50 (clinical HIV-1 isolates), entry Cc1cn([C@H]2C[C@H](N=[N+]=[N-])[C@@H](CO)O2)c(=O)[nH]c1=O : 105

----------
# Tested on: clinical HIV-1 isolates
# protocol.details: In vitro susceptibility of clinical HIV-1 isolates to zidovudine (IC50)
# Format: cell-based
# condition.description: Human immunodeficiency virus 1, read-out: zidovudine IC50 range, isolates from seropositive asymptomatic, zidovudine-untreated patients
pIC50: −log10 of the molar value.
parameter.measured: pIC50

So for Cc1cn([C@H]2C[C@H](N=[N+]=[N-])[C@@H](CO)O2)c(=O)[nH]c1=O [zidovudine, 3'-azido-3'-deoxythymidine] , the logged pIC50 turned out to be 6.22 to 9.00

----------
# Tested on: clinical HIV-1 isolates
# protocol.details: In vitro susceptibility of clinical HIV-1 isolates to zidovudine (IC50)
# Assay type: cell-based
# condition.description: Human immunodeficiency virus 1, read-out: mean zidovudine IC50, strains from zidovudine-untreated individuals (15 isolates)
# Source text: A total of 22 clinical HIV-1 isolates were studied, including 8 isolates from four seropositive asymptomatic individuals, 6 isolates from three patients with the AIDS-related complex, and 8 isolates from four patients with AIDS (two pairs of zidovudine-resistant and zidovudine-susceptible reference isolates were also included in this group). Erice et al., Antimicrob. Ag. Chemother., 37, 835 (1993). […]
parameter.measured: pIC50
Value format note: pIC50 is -log10 of concentration (mol/L); just state the number.

// field: pIC50; key: Cc1cn([C@H]2C[C@H](N=[N+]=[N-])[C@@H](CO)O2)c(=O)[nH]c1=O ; value = 6.90
